Below, each entry is listed with its recorded viability, T/C.
system: 843782-103-R-J1-PDC complex spheroid viability; experiment: Anticancer human tumor 843782-103-R-J1-PDC patient-derived lung adenocarcinoma cell line growth inhibition [RAS]; conditions: second compound 0.0316 µM; first compound 1 µM; hits give low values;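 further: viability read after seven days of compound exposure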
measurement.type: viability, T/C (%)

molecule	measured.target	measurement.type	u	value.measured
CC(C)NCC(C(=O)N1CCN(c2ncnc3c2C(C)CC3O)CC1)c1ccc(Cl)cc1 (centres undefined) + C=CC(=O)N1CCN(c2nc(OCC3CCCN3C)nc3c(F)c(-c4nc(N)cc(C)c4C(F)(F)F)c(Cl)cc23)C(C)C1	843782-103-R-J1-PDC complex spheroid viability	viability, T/C	%	38.8
C=CC(=O)Nc1cc(Nc2nccc(-c3cn(C)c4ccccc34)n2)c(OC)cc1N(C)CCN(C)C + C=CC(=O)N1CCN(c2nc(OCC3CCCN3C)nc3c(F)c(-c4nc(N)cc(C)c4C(F)(F)F)c(Cl)cc23)C(C)C1	843782-103-R-J1-PDC complex spheroid viability	viability, T/C	%	46.8
O=C(c1ccc(F)c(F)c1Nc1ccc(I)cc1F)N1CC(O)([C@@H]2CCCCN2)C1 + C#Cc1c(F)ccc2cc(O)cc(-c3ncc4c(N5CC6CCC(C5)N6)nc(OCC56CCCN5CC(F)C6)nc4c3F)c12	843782-103-R-J1-PDC complex spheroid viability	viability, T/C	%	20
CCN1CCN(Cc2ccc(Nc3ncc(F)c(-c4cc(F)c5nc(C)n(C(C)C)c5c4)n3)nc2)CC1 + C#Cc1c(F)ccc2cc(O)cc(-c3ncc4c(N5CC6CCC(C5)N6)nc(OCC56CCCN5CC(F)C6)nc4c3F)c12	843782-103-R-J1-PDC complex spheroid viability	viability, T/C	%	71
NC1c2ccccc2OC12CCN(c1cnc3c(N4CCCc5ncccc54)n[nH]c3n1)CC2 (centres undefined) + C#Cc1c(F)ccc2cc(O)cc(-c3ncc4c(N5CC6CCC(C5)N6)nc(OCC56CCCN5CC(F)C6)nc4c3F)c12	843782-103-R-J1-PDC complex spheroid viability	viability, T/C	%	53
Nc1ccn(C2OC(CO)C(O)C2(F)F)c(=O)n1 (centres undefined) + C#Cc1c(F)ccc2cc(O)cc(-c3ncc4c(N5CC6CCC(C5)N6)nc(OCC56CCCN5CC(F)C6)nc4c3F)c12	843782-103-R-J1-PDC complex spheroid viability	viability, T/C	%	1.88
CC(Nc1ccc2c(c1)OCCn1cc(N3C(=O)OCC3C(F)F)nc1-2)C(N)=O (centres undefined) + C#Cc1c(F)ccc2cc(O)cc(-c3ncc4c(N5CC6CCC(C5)N6)nc(OCC56CCCN5CC(F)C6)nc4c3F)c12	843782-103-R-J1-PDC complex spheroid viability	viability, T/C	%	35.5
CCN1CCN(Cc2ccc(Nc3ncc(F)c(-c4cc(F)c5nc(C)n(C(C)C)c5c4)n3)nc2)CC1 + C=CC(=O)N1CCN(c2nc(OCC3CCCN3C)nc3c(F)c(-c4nc(N)cc(C)c4C(F)(F)F)c(Cl)cc23)C(C)C1	843782-103-R-J1-PDC complex spheroid viability	viability, T/C	%	42.2
CC(=O)OC12COC1CC(O)C1(C)C(=O)C(O)C3=C(C)C(OC(=O)C(O)C(NC(=O)OC(C)(C)C)c4ccccc4)CC(O)(C(OC(=O)c4ccccc4)C21)C3(C)C (centres undefined) + C=CC(=O)N1CCN(c2nc(OCC3CCCN3C)nc3c(F)c(-c4nc(N)cc(C)c4C(F)(F)F)c(Cl)cc23)C(C)C1	843782-103-R-J1-PDC complex spheroid viability	viability, T/C	%	4.83
CCC(CC)c1cc(NC2CCC(N)C2)n2nccc2n1 (centres undefined) + C=CC(=O)N1CCN(c2nc(OCC3CCCN3C)nc3c(F)c(-c4nc(N)cc(C)c4C(F)(F)F)c(Cl)cc23)C(C)C1	843782-103-R-J1-PDC complex spheroid viability	viability, T/C	%	71.2
C[C@@H](NC(=O)c1ncnc(N)c1Cl)c1ncc(C(=O)Nc2cc(C(F)(F)F)c(Cl)cn2)s1 + C=CC(=O)N1CCN(c2nc(OCC3CCCN3C)nc3c(F)c(-c4nc(N)cc(C)c4C(F)(F)F)c(Cl)cc23)C(C)C1	843782-103-R-J1-PDC complex spheroid viability	viability, T/C	%	84.9
CC1(O)CCCC1n1c(=O)c(C(F)F)cc2cnc(NC3CCN(S(C)(=O)=O)CC3)nc21 (centres undefined) + C#Cc1c(F)ccc2cc(O)cc(-c3ncc4c(N5CC6CCC(C5)N6)nc(OCC56CCCN5CC(F)C6)nc4c3F)c12	843782-103-R-J1-PDC complex spheroid viability	viability, T/C	%	41.8
CC(=O)OC12COC1CC(O)C1(C)C(=O)C(O)C3=C(C)C(OC(=O)C(O)C(NC(=O)OC(C)(C)C)c4ccccc4)CC(O)(C(OC(=O)c4ccccc4)C21)C3(C)C (centres undefined) + C#Cc1c(F)ccc2cc(O)cc(-c3ncc4c(N5CC6CCC(C5)N6)nc(OCC56CCCN5CC(F)C6)nc4c3F)c12	843782-103-R-J1-PDC complex spheroid viability	viability, T/C	%	5.44
CC(C)NCC(C(=O)N1CCN(c2ncnc3c2C(C)CC3O)CC1)c1ccc(Cl)cc1 (centres undefined) + C#Cc1c(F)ccc2cc(O)cc(-c3ncc4c(N5CC6CCC(C5)N6)nc(OCC56CCCN5CC(F)C6)nc4c3F)c12	843782-103-R-J1-PDC complex spheroid viability	viability, T/C	%	71.6
Cc1nc(N2CCC3(CC2)COC(C)C3N)c(CO)nc1Sc1ccnc(N)c1Cl (centres undefined) + C#Cc1c(F)ccc2cc(O)cc(-c3ncc4c(N5CC6CCC(C5)N6)nc(OCC56CCCN5CC(F)C6)nc4c3F)c12	843782-103-R-J1-PDC complex spheroid viability	viability, T/C	%	77.2
NC1c2ccccc2OC12CCN(c1cnc3c(N4CCCc5ncccc54)n[nH]c3n1)CC2 (centres undefined) + C=CC(=O)N1CCN(c2nc(OCC3CCCN3C)nc3c(F)c(-c4nc(N)cc(C)c4C(F)(F)F)c(Cl)cc23)C(C)C1	843782-103-R-J1-PDC complex spheroid viability	viability, T/C	%	25.6
CC1(O)CCCC1n1c(=O)c(C(F)F)cc2cnc(NC3CCN(S(C)(=O)=O)CC3)nc21 (centres undefined) + C=CC(=O)N1CCN(c2nc(OCC3CCCN3C)nc3c(F)c(-c4nc(N)cc(C)c4C(F)(F)F)c(Cl)cc23)C(C)C1	843782-103-R-J1-PDC complex spheroid viability	viability, T/C	%	27.5
Nc1ccn(C2OC(CO)C(O)C2(F)F)c(=O)n1 (centres undefined) + C=CC(=O)N1CCN(c2nc(OCC3CCCN3C)nc3c(F)c(-c4nc(N)cc(C)c4C(F)(F)F)c(Cl)cc23)C(C)C1	843782-103-R-J1-PDC complex spheroid viability	viability, T/C	%	1.39
O=C(c1ccc(F)c(F)c1Nc1ccc(I)cc1F)N1CC(O)([C@@H]2CCCCN2)C1 + C=CC(=O)N1CCN(c2nc(OCC3CCCN3C)nc3c(F)c(-c4nc(N)cc(C)c4C(F)(F)F)c(Cl)cc23)C(C)C1	843782-103-R-J1-PDC complex spheroid viability	viability, T/C	%	20.9
